Doc: threshold 0.5 (exclusive). Items with logP beneath it return TRUE; others return FALSE.

O=P(NN=Cc1ccc(Cl)cc1)(N1CC1)N1CC1	TRUE
COc1ccc(C=NN(C)P(=O)(N2CC2)N2CC2)cc1	TRUE
CN(N=Cc1ccc(Br)cc1)P(=O)(N1CC1)N1CC1	TRUE
O=[N+]([O-])c1ccc(C=NNP(=O)(N2CC2)N2CC2)cc1	TRUE
O=[N+]([O-])c1ccc(N(N=Cc2ccccc2)P(=O)(N2CC2)N2CC2)cc1	FALSE

Task item: # check: logP < 0.5 for CN(N=Cc1ccc(F)cc1)P(=O)(N1CC1)N1CC1
Reply: TRUE

Task item: Item CC(C)=NNP(=O)(N1CC1)N1CC1 : logP beneath 0.5, strictly?
Reply: TRUE

Task item: Check if logP falls below 0.5 for O=P(NN=Cc1ccc(F)cc1)(N1CC1)N1CC1 .
Reply: TRUE

Task item: Criterion: logP strictly below 0.5. Is it met by O=P(N1CC1)(N1CC1)N(N=Cc1ccc(F)cc1)c1ccccc1 ?
Reply: FALSE

Task item: For this compound, is logP lower than 0.5? O=P(N1CC1)(N1CC1)N(N=Cc1ccc(Cl)cc1)c1ccccc1
Reply: TRUE

Task item: Would you kindly verify if logP of CC(C)=NN(c1ccccc1)P(=O)(N1CC1)N1CC1 is strictly less than 0.5?
Reply: FALSE

Task item: Does the reported logP of the following compound sit strictly below 0.5? O=[N+]([O-])c1ccc(C=NN(c2ccccc2)P(=O)(N2CC2)N2CC2)cc1
Reply: FALSE

Task item: Decide: logP of COc1ccc(C=NNP(=O)(N2CC2)N2CC2)cc1 strictly below 0.5?
Reply: TRUE

Task item: Is 0.5 strictly greater than the compound's reported logP? compound: O=P(NN=Cc1ccccc1)(N1CC1)N1CC1
Reply: TRUE

Task item: is_below(logP, 0.5) for O=P(N1CC1)(N1CC1)N(N=Cc1ccccc1)c1ccccc1 ?
Reply: FALSE

Task item: Say whether its logP is strictly beneath 0.5. Entry: COc1ccc(C=NN(c2ccccc2)P(=O)(N2CC2)N2CC2)cc1
Reply: FALSE

This collection of values is drawn from the OPERA property sets (Mansouri et al. 2018).
